Measured AC50 on Cytochrome P450 1A2 (Homo sapiens, UniProt P05177) follows.
Sequence (P05177 whole entry): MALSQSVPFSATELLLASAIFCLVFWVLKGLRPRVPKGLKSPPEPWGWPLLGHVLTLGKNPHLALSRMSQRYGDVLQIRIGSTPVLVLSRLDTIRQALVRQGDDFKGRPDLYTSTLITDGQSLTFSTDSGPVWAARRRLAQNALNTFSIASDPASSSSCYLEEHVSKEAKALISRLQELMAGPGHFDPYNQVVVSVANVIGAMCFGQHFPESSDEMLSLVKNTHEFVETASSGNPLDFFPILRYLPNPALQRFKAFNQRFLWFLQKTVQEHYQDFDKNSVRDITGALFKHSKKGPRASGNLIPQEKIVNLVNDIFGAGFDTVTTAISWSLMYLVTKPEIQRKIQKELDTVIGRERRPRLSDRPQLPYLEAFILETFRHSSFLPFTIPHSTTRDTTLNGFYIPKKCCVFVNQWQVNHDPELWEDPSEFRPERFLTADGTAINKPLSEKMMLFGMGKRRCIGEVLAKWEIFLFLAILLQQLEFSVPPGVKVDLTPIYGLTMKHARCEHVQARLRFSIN

Solved entries (count: 6):
>  <molecule>
CN(Cc1ccccc1)C(=O)CC(c1ccccc1)c1cc(Cl)ccc1O (stereo not given)

>  <result>
25.1 µM (inconclusive)

$$$$
>  <molecule>
O=C1NC(c2cccc([N+](=O)[O-])c2)=CCN1c1ccccc1O [ICILLIN]

>  <result>
31.6 µM (inconclusive)

$$$$
>  <molecule>
O=c1ccc2cc(O)c(O)cc2o1 [ESCULETIN]

>  <result>
15.8 µM (inconclusive)

$$$$
>  <molecule>
NS(=O)(=O)c1nc(S(=O)(=O)O)c2[nH]cnc2n1

>  <result>
5.01 µM (inconclusive)

$$$$
>  <molecule>
O=C(Cc1ccc(Cl)cc1)NNC(=O)Nc1cccc2ccccc12

>  <result>
2.51 µM (inconclusive)

$$$$
>  <molecule>
O=C1C2CCCN2C(c2ccccc2F)N1c1ccc(Cl)cc1 (stereo not given)

>  <result>
2 µM (inconclusive)

$$$$

// query Sample COc1ccc(CC(=O)Nc2cccc(-c3nnc(-c4ccco4)o3)c2)cc1 — what was its AC50?
// result 15.8 µM (inconclusive)

// query Try this molecule next: Fc1ccc(C(OCCN2CCN(C/C=C\c3ccccc3)CC2)c2ccc(F)cc2)cc1
// result 31.6 µM (inconclusive)

----------
Tested on: H9c2;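 also: cell death induced by hydrogen peroxide oxidative stress; compound pretreatment for 60 min then peroxide exposure for 2 h; potency is for protecting the cells against peroxide damage rather than for killing them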;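 also: confirmatory concentration-response retest of ultra-high-throughput screening hits for modulation of myocardial damage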
Assay: cells
Assay type: functional, cell-based
Conditions: Rattus norvegicus, H9c2, Myocardium
Calls of active or inactive are those of the source.
A collection of molecules and their measured IC50

Some molecules with recorded IC50:
>  <substance-smiles>
O=C(CSc1ccc2nnc(-c3ccc(F)cc3)n2n1)N1CCCc2ccccc21

>  <result>
> 79 µM (inactive)

$$$$
>  <substance-smiles>
COC(=O)Cc1nnc(O)c2ccccc12

>  <result>
> 79 µM (inactive)

$$$$
>  <substance-smiles>
CC(=O)Nc1cc(C)nn1-c1nc2ccccc2s1

>  <result>
11.6 µM (active)

$$$$
>  <substance-smiles>
O=C(c1ccoc1)N1CCN(c2cc(-c3ccncc3)nc3cc(-c4cccc(Cl)c4)nn23)CC1

>  <result>
> 79 µM (inactive)

$$$$

Turning to the following molecule.
// query Using the record for O=C(NNC(=O)c1ccccc1OCc1ccccc1Cl)c1csc(N2CCOCC2)n1 , report its IC50.
// result 12.8 µM (active)

----------
Molecular target: 26S proteasome non-ATPase regulatory subunit 14 (Homo sapiens)
Sequence (O00487 whole entry): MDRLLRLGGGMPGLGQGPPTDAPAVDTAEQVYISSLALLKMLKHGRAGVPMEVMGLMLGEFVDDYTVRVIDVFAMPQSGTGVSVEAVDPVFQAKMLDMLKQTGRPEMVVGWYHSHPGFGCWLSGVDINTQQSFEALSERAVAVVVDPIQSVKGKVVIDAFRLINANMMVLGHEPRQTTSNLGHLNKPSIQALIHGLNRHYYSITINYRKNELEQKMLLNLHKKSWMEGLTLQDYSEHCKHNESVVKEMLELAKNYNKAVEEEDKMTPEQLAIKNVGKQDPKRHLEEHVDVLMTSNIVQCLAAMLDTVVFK
Assay: inhibition of proteasome subunit RPN11 – biochemical, fluorescence polarization, uHTS hits, confirmation (AID 602368)
Format: functional
The source made the active and inactive calls.
readout-label: IC50

>  <substance-smiles>
O=C(NCCCN1CCCCCC1)c1ccc(CS(=O)(=O)Cc2ccccc2F)o1

>  <readout-label>
IC50

>  <result>
7.28 µM (active)

$$$$
>  <substance-smiles>
CCN(CC)CCOC(=O)c1ccc(NC=C2C(=O)NC(=O)NC2=O)cc1

>  <readout-label>
IC50

>  <result>
22.4 µM (active)

$$$$
>  <substance-smiles>
O=C(O)c1ccc(COc2ccccc2/C=C2/NC(=O)N(c3cccc(Cl)c3)C2=O)cc1

>  <readout-label>
IC50

>  <result>
18.7 µM (active)

$$$$
>  <substance-smiles>
O=C(CSc1nc2ccccc2o1)Nc1nc2c(s1)CCCC2

>  <readout-label>
IC50

>  <result>
30.6 µM (active)

$$$$
>  <substance-smiles>
CCCCCCCCCCCCCCCC[N+](C)(C)Cc1ccc(F)cc1

>  <readout-label>
IC50

>  <result>
61.1 µM (active)

$$$$
>  <substance-smiles>
O=C(CSc1nnc(SCc2ccc(Cl)cc2)s1)N/N=C/c1c[nH]c2ccccc12

>  <readout-label>
IC50

>  <result>
9.99 µM (active)

$$$$

Shifting focus to the compound that follows.
// query Observed IC50 on 26S proteasome non-ATPase regulatory subunit 14 (Homo sapiens) for COCCNC(=O)c1c(NC(=O)c2nc(SC)ncc2Cl)sc2c1CCCC2 , please.
// result 17.6 µM (active)

Data origin, for the record: ChEMBL document CHEMBL1201862
